Test: Metabolic stability in rat liver microsomes assessed as parent compound remaining at 1 uM measured for 30 mins
Assay type: ADME, Microsome
Settings: read-out: Stabilty
property-measured: remaining at 0.5 h, 1 µM

Quick one: remaining at 0.5 h, 1 µM for CN(C)C(=O)NCCCN(C)C1=Nc2ccccc2C(CC(=O)NCc2ccc(F)cc2)N1c1ccc(C2CCCCC2)cc1 (stereo unspecified) ? 62.6%

----------
Assay: Metabolic stability in dog liver microsomes assessed as parent compound remaining at 1 uM measured for 30 mins
Format: ADME, Canis lupus familiaris, Microsome
Settings: read-out: Stabilty
property-measured: remaining at 0.5 h, 1 µM (%)
# value in %; strip the unit string

Quick one: remaining at 0.5 h, 1 µM for CN(C)C(=O)NCCCN(C)C1=Nc2ccccc2C(CC(=O)NCc2ccc(F)cc2)N1c1ccc(C2CCCCC2)cc1 (stereo unspecified) ? 92.6

----------
Experiment: Metabolic stability in rat plasma assessed as parent compound remaining at 10 uM measured after 1 hr
Format: ADME, cell-free
Details: read-out: Stabilty
property-measured: remaining at 1 h, 10 µM (%)
# value in %; strip the unit string

Quick one: remaining at 1 h, 10 µM for CN(C)C(=O)NCCCN(C)C1=Nc2ccccc2C(CC(=O)NCc2ccc(F)cc2)N1c1ccc(C2CCCCC2)cc1 (stereo unspecified) ? 22

----------
Assay: Metabolic stability in mouse liver microsomes assessed as parent compound remaining at 1 uM measured for 30 mins
Assay type: ADME, Microsome
Conditions: read-out: Stabilty
property-measured: remaining at 0.5 h, 1 µM (%)
# value in %; strip the unit string

Quick one: remaining at 0.5 h, 1 µM for CN(C)C(=O)NCCCN(C)C1=Nc2ccccc2C(CC(=O)NCc2ccc(F)cc2)N1c1ccc(C2CCCCC2)cc1 (stereo unspecified) ? 64.3

----------
Target: Voltage-dependent T-type calcium channel subunit alpha-1G (Homo sapiens, UniProt O43497)
Sequence (O43497 whole entry): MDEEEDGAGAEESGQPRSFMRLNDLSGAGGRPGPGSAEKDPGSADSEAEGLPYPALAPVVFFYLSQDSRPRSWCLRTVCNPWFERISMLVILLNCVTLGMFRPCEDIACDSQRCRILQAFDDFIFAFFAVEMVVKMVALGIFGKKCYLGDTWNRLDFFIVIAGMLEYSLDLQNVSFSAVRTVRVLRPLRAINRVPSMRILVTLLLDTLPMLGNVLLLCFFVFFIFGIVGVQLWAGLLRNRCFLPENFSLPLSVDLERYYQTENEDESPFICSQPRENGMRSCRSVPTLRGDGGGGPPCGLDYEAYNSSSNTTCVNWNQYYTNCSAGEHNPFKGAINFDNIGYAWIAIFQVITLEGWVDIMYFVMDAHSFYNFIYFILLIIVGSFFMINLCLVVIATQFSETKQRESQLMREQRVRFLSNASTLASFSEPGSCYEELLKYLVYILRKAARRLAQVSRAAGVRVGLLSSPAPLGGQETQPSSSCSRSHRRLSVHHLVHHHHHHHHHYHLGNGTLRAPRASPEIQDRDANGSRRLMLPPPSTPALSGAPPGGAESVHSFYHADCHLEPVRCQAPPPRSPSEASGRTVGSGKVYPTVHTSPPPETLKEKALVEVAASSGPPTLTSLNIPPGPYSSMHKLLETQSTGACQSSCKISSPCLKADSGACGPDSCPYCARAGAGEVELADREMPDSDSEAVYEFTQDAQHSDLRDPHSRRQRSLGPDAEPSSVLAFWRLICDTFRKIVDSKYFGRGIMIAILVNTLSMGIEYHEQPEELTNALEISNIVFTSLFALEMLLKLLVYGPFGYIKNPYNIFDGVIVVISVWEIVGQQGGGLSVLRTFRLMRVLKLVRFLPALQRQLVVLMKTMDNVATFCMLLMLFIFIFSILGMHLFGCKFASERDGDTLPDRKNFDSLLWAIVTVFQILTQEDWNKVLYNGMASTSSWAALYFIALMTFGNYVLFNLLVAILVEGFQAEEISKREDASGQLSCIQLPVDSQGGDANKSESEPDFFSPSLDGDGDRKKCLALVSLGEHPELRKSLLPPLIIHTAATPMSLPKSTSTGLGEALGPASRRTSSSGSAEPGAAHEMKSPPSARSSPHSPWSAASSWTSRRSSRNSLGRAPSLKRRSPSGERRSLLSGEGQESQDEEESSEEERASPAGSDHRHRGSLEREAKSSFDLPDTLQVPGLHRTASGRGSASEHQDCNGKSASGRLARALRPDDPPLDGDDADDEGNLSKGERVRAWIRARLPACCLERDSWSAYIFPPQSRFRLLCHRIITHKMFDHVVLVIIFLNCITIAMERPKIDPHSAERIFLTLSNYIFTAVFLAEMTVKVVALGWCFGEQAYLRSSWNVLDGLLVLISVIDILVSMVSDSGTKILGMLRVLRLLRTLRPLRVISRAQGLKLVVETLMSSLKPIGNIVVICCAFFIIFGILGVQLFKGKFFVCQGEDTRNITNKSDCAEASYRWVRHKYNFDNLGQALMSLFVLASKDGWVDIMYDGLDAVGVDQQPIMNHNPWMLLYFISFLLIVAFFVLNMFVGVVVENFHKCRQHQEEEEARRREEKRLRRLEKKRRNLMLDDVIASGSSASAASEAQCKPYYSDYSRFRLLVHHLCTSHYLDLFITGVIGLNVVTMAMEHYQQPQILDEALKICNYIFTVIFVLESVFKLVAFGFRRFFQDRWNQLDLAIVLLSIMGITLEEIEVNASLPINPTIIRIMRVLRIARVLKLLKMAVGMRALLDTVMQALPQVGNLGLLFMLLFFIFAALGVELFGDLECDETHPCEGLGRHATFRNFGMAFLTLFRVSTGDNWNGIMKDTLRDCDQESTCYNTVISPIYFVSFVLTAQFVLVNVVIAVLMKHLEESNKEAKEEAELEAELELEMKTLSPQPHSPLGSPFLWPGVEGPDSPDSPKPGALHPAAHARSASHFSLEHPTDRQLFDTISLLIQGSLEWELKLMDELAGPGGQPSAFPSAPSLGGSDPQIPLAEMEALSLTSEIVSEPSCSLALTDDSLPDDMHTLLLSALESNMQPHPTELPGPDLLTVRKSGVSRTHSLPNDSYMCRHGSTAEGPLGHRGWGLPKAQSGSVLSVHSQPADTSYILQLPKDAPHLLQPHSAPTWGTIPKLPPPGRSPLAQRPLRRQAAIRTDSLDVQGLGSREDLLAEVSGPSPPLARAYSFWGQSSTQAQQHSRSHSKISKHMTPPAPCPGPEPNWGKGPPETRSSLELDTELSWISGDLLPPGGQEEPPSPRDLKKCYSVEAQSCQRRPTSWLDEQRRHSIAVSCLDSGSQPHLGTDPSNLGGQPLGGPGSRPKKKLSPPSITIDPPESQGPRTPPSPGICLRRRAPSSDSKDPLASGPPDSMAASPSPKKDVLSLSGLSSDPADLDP
Experiment: Inhibition of T type calcium channel Cav3.1 (unknown origin) expressed in HEK293T cells by patch clamp method relative to control
property-measured: IC50 (nM)
# value in nM; strip the unit string

Request: IC50, test system Voltage-dependent T-type calcium channel subunit alpha-1G (Homo sapiens, UniProt O43497), entry CN(C)CCCCCN(C)C1=Nc2ccccc2C(CC(=O)NCc2ccccc2)N1c1ccc(-c2ccccc2)cc1.Cl.Cl (stereo unspecified) 510

----------
Target: CYP2D6 (Homo sapiens)
Sequence (P10635 whole entry): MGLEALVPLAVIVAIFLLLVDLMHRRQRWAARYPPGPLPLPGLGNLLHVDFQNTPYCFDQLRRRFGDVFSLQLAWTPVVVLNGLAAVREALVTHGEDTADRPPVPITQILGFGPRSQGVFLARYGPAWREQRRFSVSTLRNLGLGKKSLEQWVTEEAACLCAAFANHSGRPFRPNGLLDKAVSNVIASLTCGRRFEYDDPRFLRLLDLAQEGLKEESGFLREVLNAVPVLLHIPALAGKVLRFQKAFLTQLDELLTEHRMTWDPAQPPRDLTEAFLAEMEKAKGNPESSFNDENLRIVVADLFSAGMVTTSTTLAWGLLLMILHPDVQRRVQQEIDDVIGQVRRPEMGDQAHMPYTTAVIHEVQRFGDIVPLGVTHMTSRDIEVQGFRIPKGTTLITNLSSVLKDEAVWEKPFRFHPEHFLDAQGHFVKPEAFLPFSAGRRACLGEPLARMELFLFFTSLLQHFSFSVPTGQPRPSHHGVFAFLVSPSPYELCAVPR
Experiment: Inhibition of human CYP2D6 assessed as residual activity at 10 uM measured after 15 mins relative to control
Type: ADME
Conditions: read-out: Activity
property-measured: activity at 0.25 h, 10 µM (%)
# value in %; strip the unit string

Quick one: activity at 0.25 h, 10 µM for CN(C)C(=O)NCCCN(C)C1=Nc2ccccc2C(CC(=O)NCc2ccc(F)cc2)N1c1ccc(C2CCCCC2)cc1 (stereo unspecified) ? 78.3

----------
Test: Metabolic stability in human plasma assessed as parent compound remaining at 10 uM measured after 1 hr
Type: ADME, cell-free
Conditions: read-out: Stabilty
property-measured: remaining at 1 h, 10 µM (%)
# value in %; strip the unit string

Quick one: remaining at 1 h, 10 µM for CN(C)C(=O)NCCCN(C)C1=Nc2ccccc2C(CC(=O)NCc2ccc(F)cc2)N1c1ccc(C2CCCCC2)cc1 (stereo unspecified) ? 85.1

----------
Target: CYP1A2 (Homo sapiens, UniProt P05177)
Sequence (P05177 whole entry): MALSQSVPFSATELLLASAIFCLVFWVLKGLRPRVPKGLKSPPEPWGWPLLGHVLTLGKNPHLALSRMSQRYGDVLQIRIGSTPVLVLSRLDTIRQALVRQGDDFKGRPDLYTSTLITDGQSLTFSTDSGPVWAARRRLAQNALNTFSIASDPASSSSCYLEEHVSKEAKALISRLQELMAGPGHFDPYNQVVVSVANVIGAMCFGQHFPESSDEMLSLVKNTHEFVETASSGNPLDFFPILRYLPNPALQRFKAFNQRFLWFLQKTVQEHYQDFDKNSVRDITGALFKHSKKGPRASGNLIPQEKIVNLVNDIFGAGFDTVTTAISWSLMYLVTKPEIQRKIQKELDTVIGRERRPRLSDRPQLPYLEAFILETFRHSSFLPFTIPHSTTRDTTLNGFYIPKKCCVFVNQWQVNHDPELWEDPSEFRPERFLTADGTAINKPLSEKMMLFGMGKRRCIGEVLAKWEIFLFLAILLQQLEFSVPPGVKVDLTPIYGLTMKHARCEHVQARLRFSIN
Test: Inhibition of human CYP1A2 assessed as residual activity at 10 uM measured after 15 mins relative to control
Assay type: ADME
Conditions: read-out: Activity
property-measured: activity at 0.25 h, 10 µM (%)
# value in %; strip the unit string

Quick one: activity at 0.25 h, 10 µM for CN(C)C(=O)NCCCN(C)C1=Nc2ccccc2C(CC(=O)NCc2ccc(F)cc2)N1c1ccc(C2CCCCC2)cc1 (stereo unspecified) ? 59.2

FYI, the data here is from ChEMBL document CHEMBL4715696.
